test system: SNB-75 CNS; assay: NCI tumour cell line growth inhibition, 48 h
Where a SMILES comes first, the peptide text is derived from it. The star is where a group is joined. OSu = O=C1CCC(=O)N1O*
Measurement name: TGI (µM)

[[record]]
compound = "CO[C@](C(=O)OC[C@H]1[C@@H](COC(C)=O)[C@@H]2O[C@H]1c1cc3c(cc12)OCO3)(c1ccccc1)C(F)(F)F"
target_system = "SNB-75 CNS"
qualifier_symbol = "="
measured_number = 71.5

[[record]]
compound = "COc1cc(OCCN(C)C)c2[nH]c(C(=O)N3CC(CCl)c4ccc(N)cc43)cc2c1 (centres undefined)"
target_system = "SNB-75 CNS"
qualifier_symbol = "="
measured_number = 0.565

[[record]]
compound = "NCCCCC(NC(=O)C(N)Cc1ccc(O)cc1)C(=O)NC(CCCCN)C(=O)NC(CCCCN)C(=O)ON1C(=O)CCC1=O (centres undefined) (H-YKKK-OSu; configuration not given here)"
target_system = "SNB-75 CNS"
qualifier_symbol = ">"
measured_number = 100

[[record]]
compound = "COc1cc2c(/C=C3/C(=O)Nc4cccc(Cl)c43)c(Cl)[nH]c2cc1C"
target_system = "SNB-75 CNS"
qualifier_symbol = "="
measured_number = 4.03

[[record]]
compound = "COc1ccc(Cn2c(Br)c3c(c2Br)-c2nc(N)sc2CC3)cc1"
target_system = "SNB-75 CNS"
qualifier_symbol = "="
measured_number = 8.64

[[record]]
compound = "C=C1C[C@H](O)[C@H](Br)C(C)(C)[C@@]12CCC(C)=C(Cl)C2"
target_system = "SNB-75 CNS"
qualifier_symbol = "="
measured_number = 0.785

[[record]]
compound = "C=C(C)C12OC1[C@@]1(C)C(=CC2=O)CCC(O)[C@@H]1C (some centres undefined)"
target_system = "SNB-75 CNS"
qualifier_symbol = "="
measured_number = 38.8

[[record]]
compound = "Nc1nc(Cl)cc(OCC2(CO)CC=CC2)n1"
target_system = "SNB-75 CNS"
qualifier_symbol = ">"
measured_number = 100

[[record]]
compound = "COc1ccc2c(c1)[n+]([O-])c(C(N)=O)c(N)[n+]2[O-]"
target_system = "SNB-75 CNS"
qualifier_symbol = ">"
measured_number = 100


---

test system: COLO 205 colon; assay: NCI tumour cell line growth inhibition, 48 h; in the data active means GI50 below about 0.43 µM; inactive means the rest
Outcome codes: active, inactive

[[record]]
molecule = "OC(c1cc(C(F)(F)F)nc2c(C(F)(F)F)cccc12)C1CCCCN1 (stereo not given)"
group = "inactive"

[[record]]
molecule = "C/C=C/[C@@H]1O[C@@H]2COC(=O)C2=C[C@@H]1O"
group = "inactive"

[[record]]
molecule = "CN1CCN(c2ccc(Nc3ncc(Cl)c(NC[C@@H]4CCCO4)n3)cc2)CC1"
group = "inactive"

[[record]]
molecule = "O=C(NC1CCCCC1)NS(=O)(=O)c1ccc(N2N=C3c4ccccc4CC3C2c2ccc(Cl)cc2)cc1 (stereo not given)"
group = "inactive"

[[record]]
molecule = "CCCCCCOc1ccc(/C=N/Nc2cc(C)nc3ccc(Cl)cc23)cc1"
group = "inactive"

[[record]]
molecule = "Cc1ccc(-c2nc(N3CCNCC3)c3oc(-c4ccc(C)cc4)nc3n2)cc1"
group = "inactive"

[[record]]
molecule = "O=C1c2c(F)c(F)c(F)c(F)c2C(=O)N1c1ccc(F)cc1F"
group = "inactive"

[[record]]
molecule = "COc1cc(-c2nc3sccn3c2-c2ccnc(NCCNS(=O)(=O)c3ccc(F)cc3)n2)ccc1F"
group = "inactive"

[[record]]
molecule = "COc1ccc(CN2C(=O)C(Cl)=C(Nc3cccc(C(F)(F)F)c3)C2=O)cc1"
group = "inactive"

[[record]]
molecule = "NC(=S)N/N=C\\c1nccc2c(C(F)(F)F)cccc12"
group = "active"


---

The entries below are paired with their reported GI50.
tested on: OVCAR-8 ovarian; assay: NCI tumour cell line growth inhibition, 48 h
Measurement name: GI50

[[record]]
compound = "O=C1NC(=NCc2ccccc2)S/C1=C\\c1ccc2ncccc2c1"
result = "> 25 µM"

[[record]]
compound = "O=[N+]([O-])c1cc([N+](=O)[O-])c(C(F)(F)F)cc1NN=C(c1ccc(O)cc1)c1ccc(O)cc1"
result = "4.2 µM"

[[record]]
compound = "O=C(O)C(Cl)Cl"
result = "> 10000 µM"

[[record]]
compound = "COCCn1cc(-c2nc(-c3cc4cccnc4[nH]3)cs2)c2cc(OC)ccc21"
result = "3.56 µM"

[[record]]
compound = "COc1cc(/C=C2\\CN(S(=O)(=O)c3ccc(C)cc3)C/C(=C\\c3cc(CN4CCCC4)c(O)c(OC)c3)C2=O)cc(CN2CCCC2)c1O"
result = "0.71 µM"

[[record]]
compound = "O=C(Nc1nn2c(-c3cc(C(F)(F)F)cc(C(F)(F)F)c3)nnc2s1)C1CCCC1"
result = "1.18 µM"

[[record]]
compound = "CC(=O)N[C@@H](Cc1ccc(OP(=O)(O)O)cc1)C(=O)N[C@H]1CCC(=O)N2CCC[C@@H](C(=O)Nc3cccc4ccccc34)N2C1=O"
result = "> 25 µM"

[[record]]
compound = "COc1cc2c(cc1OC)-c1cc(OC)c(OC)cc1C(CN(C)C)C2 (centres undefined)"
result = "> 10 µM"

[[record]]
compound = "C#Cc1cccc(Nc2nc3cc([N+](=O)[O-])ccc3nc2Nc2ccc(O)cc2)c1"
result = "2.33 µM"


---

tested on: ACHN renal; assay: NCI tumour cell line growth inhibition, 48 h; in the data active = GI50 below about 0.43 µM; inactive = the rest
Outcome codes: active, inactive

[[record]]
molecule = "COc1cc2c(cc1OC)-c1cc(OC)c(OC)cc1C(CN(C)C)C2 (stereo unspecified)"
group = "inactive"

[[record]]
molecule = "C#Cc1cccc(Nc2nc3cc([N+](=O)[O-])ccc3nc2Nc2ccc(O)cc2)c1"
group = "inactive"

[[record]]
molecule = "COc1ccc(CN2C(=O)C(Cl)=C(Nc3cccc(C(F)(F)F)c3)C2=O)cc1"
group = "inactive"

[[record]]
molecule = "Cc1cc(Nc2ccc(C)c(Cl)c2)n2nc(C(F)(F)F)nc2n1"
group = "inactive"

[[record]]
molecule = "COc1ccc(Cn2c(Br)c3c(c2Br)-c2nc(N)sc2CC3)cc1"
group = "inactive"

[[record]]
molecule = "O=C(Nc1cccc(C(F)(F)F)c1)Nc1cccc(C(F)(F)F)c1"
group = "active"

[[record]]
molecule = "COc1cc(-c2nn(-c3cccc(NC(=O)c4ccccc4)c3)cc2-c2ccncc2)ccc1Cl"
group = "inactive"

[[record]]
molecule = "CCCCCCOc1ccc(/C=N/Nc2cc(C)nc3ccc(Cl)cc23)cc1"
group = "inactive"

[[record]]
molecule = "COc1ccc2ncnc(Nc3ccc(OCc4ccccc4)cc3)c2c1"
group = "inactive"

[[record]]
molecule = "c1ccc(-c2n(Cc3ccc4ccccc4n3)cc[n+]2Cc2ccc3ccccc3c2)cc1"
group = "inactive"

[[record]]
molecule = "CC(C)(C)[Si](C)(C)OC1[C@@H](O[Si](C)(C)C(C)(C)C)[C@@H](CNC(=O)NC(=O)C(F)(F)F)O[C@H]1n1cnc2c(NC(=O)Nc3ccccc3)ncnc21 (stereo partly specified)"
group = "inactive"

[[record]]
molecule = "C=C1C[C@H](O)[C@H](Br)C(C)(C)[C@@]12CCC(C)=C(Cl)C2"
group = "active"

[[record]]
molecule = "C=C1C(=O)O[C@H]2[C@H]1CC/C(CNC(=O)c1cc3ccccc3[nH]1)=C\\CC[C@@]1(C)O[C@@H]21"
group = "inactive"

[[record]]
molecule = "COc1cc(-c2nc3sccn3c2-c2ccnc(NCCNS(=O)(=O)c3ccc(F)cc3)n2)ccc1F"
group = "inactive"

[[record]]
molecule = "NC(=S)N/N=C1\\c2cc(Cl)ccc2-c2c1cc(Cl)cc2[N+](=O)[O-]"
group = "inactive"

[[record]]
molecule = "O=C1NC(=NCc2ccccc2)S/C1=C\\c1ccc2ncccc2c1"
group = "inactive"


---

// TGI lookup, one value per entry
test system: NCI-H460 lung; test: NCI tumour cell line growth inhibition, 48 h
Measurement name: TGI (µM)

[[record]]
compound = "CN(C)CC1CCC/C1=N/OC(=O)c1ccccc1 (configuration not stated)"
measurement_name = "TGI"
qualifier_symbol = ">"
measured_number = 100

[[record]]
compound = "N#CSC#CCCC#CSC#N"
measurement_name = "TGI"
qualifier_symbol = "="
measured_number = 48.4

[[record]]
compound = "CC(=O)[O-].CC(=O)[O-].O=C(N/N=C/c1cc(Cl)cc(Cl)c1O)c1ccncc1.[Cu+2]"
measurement_name = "TGI"
qualifier_symbol = ">"
measured_number = 100

[[record]]
compound = "CCOC(=O)c1cn2c(n1)sc1cc(F)ccc12"
measurement_name = "TGI"
qualifier_symbol = ">"
measured_number = 100

[[record]]
compound = "COc1ccc2oc3c(C)cc4c(OC)nnc(OC)c4c3c2c1"
measurement_name = "TGI"
qualifier_symbol = ">"
measured_number = 100

[[record]]
compound = "Fc1cc(-c2nnc3n2N=C(c2ccc(Cl)cc2)CS3)c(Cl)cc1Cl"
measurement_name = "TGI"
qualifier_symbol = "="
measured_number = 37.4

[[record]]
compound = "S=P1(Oc2ccccc2)NNP2(=NP(N3CC3)(N3CC3)=NP(N3CC3)(N3CC3)=N2)NN1 (configuration not stated)"
measurement_name = "TGI"
qualifier_symbol = ">"
measured_number = 100

[[record]]
compound = "O=C1c2cccc3cc([N+](=O)[O-])cc(c23)C(=O)N1Nc1ccc([N+](=O)[O-])cc1[N+](=O)[O-]"
measurement_name = "TGI"
qualifier_symbol = "="
measured_number = 36.2

[[record]]
compound = "O=C1C(C(Nc2ccccc2)c2ccccc2)=C([O-])c2ccccc21.O=C1C(C(Nc2ccccc2)c2ccccc2)=C([O-])c2ccccc21.[Cu+2] (configuration not stated)"
measurement_name = "TGI"
qualifier_symbol = ">"
measured_number = 100

[[record]]
compound = "C=C1c2nc3ccccc3n2C=C(c2ccc(OC)cc2)N1c1ccc(OC)cc1"
measurement_name = "TGI"
qualifier_symbol = ">"
measured_number = 100

[[record]]
compound = "CO[C@](C(=O)OC[C@H]1[C@@H](COC(C)=O)[C@@H]2O[C@H]1c1cc3c(cc12)OCO3)(c1ccccc1)C(F)(F)F"
measurement_name = "TGI"
qualifier_symbol = "="
measured_number = 49.6

[[record]]
compound = "COC(=O)c1cccc(C)c1C1CN=NC12Cc1cc(C)cc(C)c1C2=O (configuration not stated)"
measurement_name = "TGI"
qualifier_symbol = ">"
measured_number = 100

[[record]]
compound = "C/C(=N\\NC(N)=S)c1ccc2c(c1)Sc1ccccc1O2"
measurement_name = "TGI"
qualifier_symbol = "="
measured_number = 11.8

[[record]]
compound = "CC1(C)[C@@H](NOCCCN)CC[C@]2(C)[C@H]3C(=O)C=C4[C@@H]5C[C@](C)(C(=O)O)CC[C@]5(C)CC[C@@]4(C)[C@]3(C)CC[C@@H]12"
measurement_name = "TGI"
qualifier_symbol = "="
measured_number = 46

[[record]]
compound = "COc1cc2c(cc1O)[C@H](C)C(c1ccc(OC)c(OC)c1)O2 (some centres not stated)"
measurement_name = "TGI"
qualifier_symbol = "="
measured_number = 4.87

[[record]]
compound = "O=C1SC(SCc2ccccc2)=NC12CC2c1ccccc1 (configuration not stated)"
measurement_name = "TGI"
qualifier_symbol = "="
measured_number = 41.4

[[record]]
compound = "CC1(C)CC(c2c[nH]c3ccccc23)=CC2=Nc3ccccc3C21O (configuration not stated)"
measurement_name = "TGI"
qualifier_symbol = ">"
measured_number = 100

[[record]]
compound = "COC(=O)/C=C/c1cc(OC(C)=O)c2c(c1)[C@@H](C(=O)OC)[C@H](c1ccc(OC(C)=O)c(OC(C)=O)c1)O2"
measurement_name = "TGI"
qualifier_symbol = "="
measured_number = 15

[[record]]
compound = "C/C(CN1C(=O)c2ccccc2C1=O)=N\\NS(=O)(=O)c1ccc(Cl)cc1"
measurement_name = "TGI"
qualifier_symbol = ">"
measured_number = 100

[[record]]
compound = "O=C(Nc1cccc(C(F)(F)F)c1)Nc1cccc(C(F)(F)F)c1"
measurement_name = "TGI"
qualifier_symbol = "="
measured_number = 5.73

[[record]]
compound = "CC(=O)OCc1ccc2c(c1)C(O)NC(=O)O2 (configuration not stated)"
measurement_name = "TGI"
qualifier_symbol = ">"
measured_number = 100

[[record]]
compound = "COC(=O)[C@]1(C)CCC[C@@]2(C)C1CC[C@@]13C=C(C(C)C)[C@@H](CC1=O)CC23 (some centres not stated)"
measurement_name = "TGI"
qualifier_symbol = ">"
measured_number = 100

[[record]]
compound = "Cc1cc(OC(=O)Nc2cccc3ccccc23)c(C(C)C)cc1C(=S)Nc1ccccc1"
measurement_name = "TGI"
qualifier_symbol = "="
measured_number = 47.1

[[record]]
compound = "O=C1c2ccccc2C(=O)c2c(/C=C\\N3CCCCC3)ccnc21"
measurement_name = "TGI"
qualifier_symbol = "="
measured_number = 4.91

[[record]]
compound = "C[N+]12C=CC=C1C(N1CCCC1)c1scc(-c3ccc(Br)cc3)c12 (configuration not stated)"
measurement_name = "TGI"
qualifier_symbol = ">"
measured_number = 84.7

[[record]]
compound = "O=C(Nc1nc(=S)[nH][nH]1)C(=O)C(C(=O)c1ccc2ccccc2c1)C1OC(=O)c2ccccc21 (configuration not stated)"
measurement_name = "TGI"
qualifier_symbol = ">"
measured_number = 100

[[record]]
compound = "COC(=O)c1cc2oc(/C=C3/SC(=S)N(NC(C)=O)C3=O)cc2n1C"
measurement_name = "TGI"
qualifier_symbol = ">"
measured_number = 100

